STUDY_TARGET: GppNp-KRAS G12V (Homo sapiens, UniProt P01116, G12V)
ASSAY_EXPLANATION: biochemical
QUANTITY: IC50

Would you please look over these solved cases?
COMPOUND	IC50
C#Cc1c(F)ccc2cc(N)cc(-c3nc4c5c(nc(OC[C@@]67CCCN6C[C@H](F)C7)nc5c3F)N3C(COCCN3C)N4C)c12 (stereo partly drawn)	> 1000 nM
C#Cc1c(F)ccc2cc(N)cc(-c3nc4c5c(nc(OCC(CN6CCOCC6)OC)nc5c3F)N3CCCOCC3N4C)c12 (stereo not drawn)	> 1000 nM
C#Cc1c(F)ccc2cc(N)cc(-c3nc4c5c(nc(OC[C@@]67CCCN6C[C@H](F)C7)nc5c3F)N3CCCC/C(=C/F)C3N4C)c12 (stereo partly drawn)	> 1000 nM
C#Cc1c(F)ccc2cc(N)cc(-c3nc4c5c(nc(OC[C@@]67CCCN6C[C@H](F)C7)nc5c3F)N3C(CCCC[C@@H]3C(C)O)N4C)c12 (stereo partly drawn)	631 nM
N#Cc1c(N)sc2c(F)ccc(-c3c(F)c4c5c(nc(OC[C@@]67CCCN6C[C@H](F)C7)nc5c3F)N3CCCOC[C@H]3CO4)c12 (single isomer, unassigned) [Compound 163B]	18.3 nM
C#Cc1c(F)ccc2cc(N)cc(-c3nc4c5c(nc(OC[C@@]67CCCN6C[C@H](F)C7)nc5c3F)N3CC(C)COC[C@H]3CO4)c12 (stereo partly drawn)	> 1000 nM
C#Cc1c(F)ccc2cc(N)cc(-c3nc4c5c(nc(OC[C@@]67CCCN6C[C@H](F)C7)nc5c3F)N3CCCOCC3N4CCC(F)(F)F)c12 (stereo partly drawn)	> 1000 nM
C#Cc1c(F)ccc2cc(N)cc(-c3nc4c5c(nc(OC[C@@]67CCCN6C[C@H](F)C7)nc5c3F)N3C(C5CCC5)CCOCC3N4C)c12 (stereo partly drawn)	> 1000 nM
N#Cc1c(N)sc2c(F)ccc(-c3cc4c5c(nc(OC[C@@]67CCCN6C[C@H](F)C7)nc5c3F)N3CCCCC[C@H]3CO4)c12	> 1000 nM
C#Cc1c(F)ccc2cc(N)cc(-c3nc4c5c(nc(OC[C@@]67CCCN6C[C@H](F)C7)nc5c3F)N3CC(F)CC[C@H](F)[C@H]3N4C)c12 (stereo partly drawn)	50.4 nM

q: Field request: IC50 | item: C#Cc1c(F)ccc2cc(N)cc(-c3nc4c5c(nc(OCC6(CN7CCOCC7)CCC6)nc5c3F)N3CCCOCC3N4C)c12 (stereo not drawn)
a: > 1000 nM

q: Field request: IC50 | item: CCc1c(F)ccc2cc(N)cc(-c3nc4c5c(nc(OC[C@@]67CCCN6C[C@H](F)C7)nc5c3F)N3[C@@H](C)CCOC[C@H]3N4C)c12
a: > 1000 nM

q: Field request: IC50 | item: C[C@H]1CCOC[C@H]2N(C)c3nc(-c4cc(O)cc5ccc(F)c(Cl)c45)c(F)c4nc(OC[C@@]56CCCN5C[C@H](F)C6)nc(c34)N12
a: 233 nM

q: Field request: IC50 | item: N#Cc1c(N)sc2c(F)ccc(-c3c(F)c4c5c(nc(OC[C@@]67CCCN6C[C@H](F)C7)nc5c3F)N3CCCOC[C@H]3CO4)c12 (single isomer, unassigned) [Compound 163A]
a: > 1000 nM

q: Field request: IC50 | item: C#Cc1c(F)ccc2cc(N)cc(-c3nc4c5c(nc(OC[C@@]67CCCN6C[C@H](F)C7)nc5n5c(n4C)=CC=CCC5)c3F)c12
a: > 1000 nM

---

STUDY_TARGET: GppNp-KRAS G12V (Homo sapiens, UniProt P01116, G12V)
ASSAY_EXPLANATION: GTP-K-Ras and cRAF interaction assay, GppNp-KRAS G12V
CONDITION_SUMMARY: read-out: Biochemical assays, IC50, KRAS G12V GppNp; GppNp-loaded K-Ras G12V, cRAF RBD interaction, HTRF
QUANTITY: IC50

Would you please look over these solved cases?
> print(dat)
                                   compound  assay.value
1  C#Cc1c(F)ccc2cc(N)cc(-c3nc4c5c(nc(OCC67CCCN6CC(F)C7)nc5c3F)N3C(C#N)CCCCC3N4C)c12 (stereo not drawn) [Compound 168B]    > 1000 nM
2  C#Cc1c(F)ccc2cc(N)cc(-c3nc4c5c(nc(OC[C@@]67CCCN6C[C@H](F)C7)nc5c3F)N3CCCC[C@@H](Cl)[C@@H]3N4C)c12 [Compound 62A]    > 1000 nM

q: Field request: IC50 | item: C#Cc1c(F)ccc2cc(N)cc(-c3nc4c5c(nc(OC[C@@]67CCCN6C[C@H](F)C7)nc5c3F)N3CCCCC[C@@H]3CO4)c12 [Compound 27A]
a: > 1000 nM

---

Listing: IC50 of selected compounds
STUDY_TARGET: GppNp-KRAS G12D (Homo sapiens, UniProt P01116, G12D)
Sequence (P01116 1-169 isoform P01116-2 G12D): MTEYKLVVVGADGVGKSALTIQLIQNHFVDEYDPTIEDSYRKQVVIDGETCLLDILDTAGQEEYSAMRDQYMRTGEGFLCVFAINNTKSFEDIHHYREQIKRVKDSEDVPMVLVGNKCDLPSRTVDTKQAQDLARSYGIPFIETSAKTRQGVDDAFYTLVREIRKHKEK
ASSAY_EXPLANATION: GTP-K-Ras and cRAF interaction assay, GppNp-KRAS G12D
CONDITION_SUMMARY: read-out: Biochemical assays, IC50, KRAS G12D GppNp; GppNp-loaded K-Ras G12D, cRAF RBD interaction, HTRF

Would you please look over these solved cases?
> print(dat)
                                   compound  quantity  assay.value
1  C#Cc1c(F)ccc2cc(N)cc(-c3nc4c5c(nc(OC[C@@]67CCCN6C[C@H](F)C7)nc5c3F)N3CCCCC[C@@H]3CO4)c12 [Compound 27A]      IC50    > 1000 nM
2  C#Cc1c(F)ccc2cc(N)cc(-c3nc4c5c(nc(OC[C@@]67CCCN6C[C@H](F)C7)nc5c3F)N3CC(F)(F)CCC[C@@H]3N4C)c12 [Compound 106A]      IC50    > 1000 nM

Now consider the entry below.
q: Field request: IC50 | item: C#Cc1c(F)ccc2cc(N)cc(-c3nc4c5c(nc(OCC67CCCN6CC(F)C7)nc5c3F)N3C(C#N)CCCCC3N4C)c12 (stereo not drawn) [Compound 168B]
a: > 1000 nM

---

STUDY_TARGET: GDP-KRAS G12D (Homo sapiens, UniProt P01116, G12D)
Sequence (P01116 1-169 isoform P01116-2 G12D): as above
ASSAY_EXPLANATION: SOS1 catalyzed nucleotide exchange assay, GDP-KRAS G12D
CONDITION_SUMMARY: read-out: Biochemical assays, IC50, KRAS G12D GDP, GDP form K-Ras G12D, TR-FRET
Listing: pIC50 of selected compounds
The read-out pIC50 is expressed as -log10 of concentration in moles per litre.

Would you please look over these solved cases?
COMPOUND	QUANTITY	ASSAY_VALUE
C#Cc1c(F)ccc2cc(N)cc(-c3nc4c5c(nc(OCC67CCCN6CC(F)C7)nc5c3F)N3C(C)CCOCC3CO4)c12 (stereo not drawn) [Compound 38B]	pIC50	8.98
C#Cc1c(F)ccc2cc(N)cc(-c3nc4c5c(nc(OC[C@@]67CCCN6C[C@H](F)C7)nc5c3F)N3CCCCC[C@@H]3CO4)c12 [Compound 27A]	pIC50	7.32

Now consider the entry below.
q: Field request: pIC50 | item: N#Cc1c(N)sc2c(F)ccc(-c3c(Cl)c4c5c(nc(OCC67CCCN6CC(F)C7)nc5c3F)N3CCCOCC3CO4)c12 (single isomer, unassigned) [Compound 66A]
a: 6.77

---

STUDY_TARGET: GDP-KRAS G12V (Homo sapiens, UniProt P01116, G12V)
Sequence (P01116 1-169 isoform P01116-2 G12V): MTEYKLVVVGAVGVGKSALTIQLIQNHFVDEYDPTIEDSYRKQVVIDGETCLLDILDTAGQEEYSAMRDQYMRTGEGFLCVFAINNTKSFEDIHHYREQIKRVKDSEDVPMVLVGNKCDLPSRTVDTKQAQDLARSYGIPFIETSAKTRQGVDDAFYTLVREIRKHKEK
ASSAY_EXPLANATION: biochemical
Decision: IC50 beneath 10 nM gives satisfied; IC50 meeting or exceeding 10 nM gives not satisfied.

Sample answers from the record:
MOLECULE	STUDY_TARGET	CLASS_NAME
C#Cc1c(F)ccc2cc(N)cc(-c3nc4c5c(nc(OCC6(CN7CCOCC7)CCC6)nc5c3F)N3CCCOCC3N4C)c12 (centres unmarked) [Compound 140]	GDP-KRAS G12V (Homo sapiens, UniProt P01116, G12V)	satisfied
C#Cc1c(F)ccc2cc(N)cc(-c3nc4c5c(nc(OC[C@@]67CCCN6C[C@H](F)C7)nc5c3F)N3CCCC3N4C)c12 (some centres unmarked) [Compound 153]	GDP-KRAS G12V (Homo sapiens, UniProt P01116, G12V)	not satisfied

Could you now consider this next molecule?
q: Is IC50 of C#Cc1c(F)ccc2cc(N)cc(-c3nc4c5c(nc(OC[C@@]67CCCN6C[C@H](F)C7)nc5c3F)N3CCCC=C(F)C3N4C)c12 (some centres unmarked) [Compound 80] strictly below 10 nM?
a: not satisfied
